Dear all, this message contains IC50 results, target or system Glyceraldehyde-3-phosphate dehydrogenase (Homo sapiens).
outcome_measure: IC50

O=C1[C@H]2CC=CC[C@H]2C(=O)N1c1nnc(Cc2ccc(F)cc2)[nH]1 > 100 µM (not active)
O=C(O)CCCCC(=O)c1ccc(CC(=O)O)s1 > 100 µM (not active)
COc1cccc(Cc2nc(N)nn2-c2ccccc2)c1 > 100 µM (not active)
O=C1C(Cl)=C(Cl)C(=O)N1c1nnc(Cc2ccccc2)[nH]1 > 100 µM (not active)
O=C1C(Cl)=C(N2CCN(CCO)CC2)C(=O)N1c1cccc(C(F)(F)F)c1 > 50 µM (inconclusive)
O=C1NC(=S)N/C1=C\c1ccc(-c2cc([N+](=O)[O-])ccc2Br)o1 > 100 µM (not active)

* * *

target: Dual specificity tyrosine-phosphorylation-regulated kinase 1A (Rattus norvegicus, UniProt Q63470); assay type: biochemical, Homo sapiens
Activity calls are given as the source filed them.
AC50 values by entry
outcome_measure: AC50

Oc1ccc(-c2nc(-c3ccc(O)c(O)c3)cs2)cc1 3.19 µM (active)
Nc1c(C(=O)O)ccc2c1C(=O)c1ccccc1C2=O 1.28 µM (active)
C(=N\NC1=Nc2cccc3cccc1c23)/c1ccccn1 9.7 µM (active)
COc1cc(/C=C2/C(=N)N3C(SC)=NSC3=NC2=O)ccc1OC(=O)c1ccco1 5.64 µM (active)

* * *

test: loss of viability in HepG2 cells – cell-based, CellTiter-Glo, cherry-picked, cytotoxicity control for Shn3 inhibitor project, dose response (AID 624134); assay type: functional
Calls of active or inactive are those of the source.
Outcome codes: active, inactive

compound	discrete_label
CC(C)C1C(=O)N(Cc2cn(CCC3OCCO3)nn2)CCS(=O)(=O)N1Cc1ccc(-c2ccc(Cl)c(Cl)c2)cc1 (centres undefined)	inactive
CN1CCN(S(=O)(=O)c2ccc(Sc3nnnn3-c3ccccc3)c([N+](=O)[O-])c2)CC1	inactive
Oc1nc2ccccc2n1C1CCN(C(CCc2ccccc2)c2nnnn2Cc2ccccc2)CC1 (centres undefined)	active
COC(=O)C1=C(c2ccc(-c3ccccc3)c(F)c2)C[C@@H]2CC[C@H]1N2C(=O)NCC1CC1	inactive

* * *

experiment: NIH3T3 cell viability loss – ATP luminescence, mouse fibroblasts, counter-screen, dose response (AID 2010); assay type: functional, cell-based;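 note: cells exposed to compound for about 90 hours before reading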
Active and inactive are the calls of the source.

compound	EC50
COc1ccccc1/C=C(/CC(=O)NCc1ccc2c(c1)OCO2)c1nc2ccccc2s1	> 60 µM (not active)
O=C(COc1ccc(F)cc1Cl)Nc1cc(S(=O)(=O)N2CCOCC2)ccc1N1CCCCC1	> 60 µM (not active)
CCOc1cc(CNCCSc2nnnn2C)cc(Br)c1OCc1ccccc1F	> 60 µM (not active)
Cc1ccc2c(c1)c(/C=C/c1cc[n+](C)cc1)c(C)n2C	> 60 µM (not active)
Cc1ccc(NC(=O)c2cc(N3C(=O)C=CC3=O)ccc2N2CCOCC2)cc1	6.01 µM (active)
COc1ccccc1N(C(=O)c1ccncc1)c1nc(-c2ccc([N+](=O)[O-])cc2)cs1	> 60 µM (inconclusive)
OC(COc1ccc(CNCCc2ccc(C(F)(F)F)cc2)cc1)CN1CCCCC1 (stereo unspecified)	5.08 µM (active)
CCN(CC)c1ccc(S(=O)(=O)N2CCCCC2)cc1NC(=O)C1=COCCO1	> 60 µM (not active)
CCCC(=O)NC(c1ccc2c(c1)OCO2)c1cc(Cl)c2cccnc2c1O (stereo unspecified)	2.21 µM (active)
O=C(NCCOc1ccccc1)c1cc(C(=O)NCCOc2ccccc2)cc([N+](=O)[O-])c1	> 60 µM (not active)
CCC(=O)c1cc(F)c(N2CCN(S(=O)(=O)c3ccc(C)cc3)CC2)cc1C	> 60 µM (not active)
